TARGET OR SYSTEM: T1, recombinant human matriptase (human), Q9Y5Y6
T1 chain: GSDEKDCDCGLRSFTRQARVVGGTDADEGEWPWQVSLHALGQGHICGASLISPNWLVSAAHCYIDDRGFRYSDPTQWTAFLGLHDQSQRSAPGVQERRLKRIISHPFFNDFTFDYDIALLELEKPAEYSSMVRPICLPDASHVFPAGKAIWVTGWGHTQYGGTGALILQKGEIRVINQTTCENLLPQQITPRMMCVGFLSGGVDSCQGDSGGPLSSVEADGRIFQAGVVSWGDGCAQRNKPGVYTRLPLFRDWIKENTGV
PROTOCOL SUMMARY: competitive inhibition assay with peptide substrate
QUANTITY MEASURED: pKi
Bear in mind: pKi is minus log10 of a mol/L concentration; give just that figure.

# pKi lookup, item RVCPRILKKCRRDSDCPGACICRGNGYCG (modifications not checked) [acyclic MCoTI-II variant M]
9.40
